Target: Transcriptional activator protein LuxR (Aliivibrio fischeri, UniProt P12746)
Experiment: Agonist activity at Vibrio fischeri ESI 114 (delta-LuxI) LuxR after 8 hrs by […] relative to […]
readout: EC50 (µM)
Number in µM, nothing else.

IN: Item O=C(Cc1cccc([N+](=O)[O-])c1)N[C@H]1CCSC1=O with Transcriptional activator protein LuxR (Aliivibrio fischeri, UniProt P12746) - EC50?
OUT: 11

----------
Molecular target: Transcriptional activator protein TraR (Agrobacterium tumefaciens) (UniProt P33905)
Test: Agonist activity at Agrobacterium tumefaciens WCF (pCF372) TraR at 10 uM after 8 hrs by beta-galactosidase reporter gene assay relative to […]
Assay type: functional
Recorded Activity for the following molecules
State the answer as a number, implicitly in %.

{"molecule": "O=C(Cc1ccc(Br)cc1)N[C@H]1CCSC1=O", "unit info": "%", "data value": 0}
{"molecule": "O=C(Cc1ccc(Br)cc1)NC1CCSC1=O (racemic)", "unit info": "%", "data value": 1}
{"molecule": "O=C(Cc1ccc(-c2ccccc2)cc1)N[C@H]1CCSC1=O", "unit info": "%", "data value": 0}

IN: If you can, please state the reported Activity value of CCCC(=O)CC(=O)N[C@H]1CCSC1=O .
OUT: 1

IN: For the molecule shown here, CCCCCCCCCCCC(=O)N[C@H]1CCSC1=O , give the reported Activity.
OUT: 0

----------
Biological target: UniProt:P33905
Sequence (whole entry): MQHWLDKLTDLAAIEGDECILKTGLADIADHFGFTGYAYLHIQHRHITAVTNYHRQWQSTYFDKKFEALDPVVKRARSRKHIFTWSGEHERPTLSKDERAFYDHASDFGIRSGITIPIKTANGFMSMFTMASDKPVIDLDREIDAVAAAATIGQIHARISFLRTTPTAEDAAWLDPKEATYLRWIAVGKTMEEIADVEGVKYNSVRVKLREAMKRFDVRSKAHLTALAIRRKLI
Assay: Antagonist activity at Agrobacterium tumefaciens WCF (pCF372) TraR assessed as inhibition of […]-induced quorum sensing activation at 10 uM after 8 hrs by beta-galactosidase reporter gene assay relative to untreated control
Format: functional
readout: inhibition (%)
Report only the number, with the unit % understood.

Solved cases below.
{"molecule": "O=C(Cc1ccc(-c2ccccc2)cc1)N[C@H]1CCSC1=O", "target": "UniProt:P33905", "data value": 9}
{"molecule": "O=C(Cc1ccc(-c2ccccc2)cc1)NC1CCSC1=O (racemic)", "target": "UniProt:P33905", "data value": 26}

IN: Lab note: need inhibition for CCCC(=O)CC(=O)N[C@H]1CCSC1=O on UniProt:P33905, anyone have it?
OUT: 93

IN: So what inhibition did CCCCCCCCCCCC(=O)N[C@H]1CCSC1=O get with UniProt:P33905?
OUT: 6

IN: What is its inhibition for UniProt:P33905? Entry: CCCCCCCCCC(=O)CC(=O)NC1CCSC1=O (racemic)
OUT: 51

----------
Target: Transcriptional activator protein LasR (Pseudomonas aeruginosa (strain ATCC 15692 / PAO1 / 1C / PRS 101 / LMG12228)) (UniProt P25084)
Sequence (whole entry): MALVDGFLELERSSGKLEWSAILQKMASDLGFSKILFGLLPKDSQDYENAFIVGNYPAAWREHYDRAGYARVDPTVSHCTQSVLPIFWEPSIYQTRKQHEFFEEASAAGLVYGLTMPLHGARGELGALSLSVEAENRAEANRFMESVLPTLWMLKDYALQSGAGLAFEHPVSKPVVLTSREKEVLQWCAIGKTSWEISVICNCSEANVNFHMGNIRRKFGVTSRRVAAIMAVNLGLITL
Assay: Agonist activity at Pseudomonas aeruginosa PAO1 MW1 (pUM15) LasR at 10 uM after 8 hrs by YFP fluorescence reporter gene assay relative to OdDHL
Categories are assigned from the measured Activity using these intervals: Low (below 3%), Medium (3% to below 20%), High (20% or more)

{"molecule": "CCCCCCCCCC(=O)CC(=O)NC1CCSC1=O (racemic)", "assigned label": "High"}

Now examine the next entry.
IN: # bin lookup: classify O=C(Cc1ccccc1)N[C@H]1CCSC1=O by its Activity
OUT: Low

----------
Assay: Agonist activity at Escherichia coli DH5alpha (pJN105L + pSC11) LasR after 8 hrs by beta-galactosidase reporter gene assay relative to OdDHL
Assay type: functional, Escherichia coli DH5[alpha]
pEC50: −log10 of the molar value.
Parameter threshold = 6. Response is YES when pEC50 meets or exceeds it, else NO.

IN: # check: pEC50 of CCCC(=O)CC(=O)N[C@H]1CCSC1=O is greater than or equal to 6
OUT: YES

IN: Could you tell me if the measured pEC50 of O=C(Cc1cccc([N+](=O)[O-])c1)N[C@H]1CCSC1=O reaches 6 or more?
OUT: NO

----------
Target: Transcriptional activator protein LuxR (Aliivibrio fischeri, UniProt P12746)
Sequence (P12746 whole entry): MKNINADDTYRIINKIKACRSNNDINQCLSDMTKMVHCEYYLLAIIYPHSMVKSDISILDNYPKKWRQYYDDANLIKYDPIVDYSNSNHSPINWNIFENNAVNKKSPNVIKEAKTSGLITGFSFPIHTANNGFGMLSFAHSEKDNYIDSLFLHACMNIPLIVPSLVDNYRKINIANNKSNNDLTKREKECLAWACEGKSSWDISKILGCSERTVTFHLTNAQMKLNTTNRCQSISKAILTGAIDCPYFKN
Assay: Antagonist activity at Vibrio fischeri ESI 114 (delta-LuxI) LuxR assessed as inhibition of OHHL-induced quorum sensing activation after 8 hrs by […]
# reported IC50; entries follow
Reply with just the number (in nM).

Reference set, count: 5
{"chemical structure": "CCCCCC(=O)CC(=O)N[C@H]1CCSC1=O", "IC50 / nM": 350}
{"chemical structure": "CCCCCCCCCC(=O)CC(=O)N[C@H]1CCSC1=O", "IC50 / nM": 450}
{"chemical structure": "CCCCCCC(=O)N[C@H]1CCSC1=O", "IC50 / nM": 310}
{"chemical structure": "CCCCCCCC(=O)N[C@H]1CCSC1=O", "IC50 / nM": 130}
{"chemical structure": "CCCCCC(=O)N[C@H]1CCSC1=O", "IC50 / nM": 840}

IN: Recall the recorded IC50 for O=C(Cc1ccc(-c2ccccc2)cc1)N[C@H]1CCSC1=O with Transcriptional activator protein LuxR (Aliivibrio fischeri, UniProt P12746) and state it.
OUT: 350

IN: IC50 of O=C(Cc1ccc(Br)cc1)N[C@H]1CCSC1=O on Transcriptional activator protein LuxR (Aliivibrio fischeri, UniProt P12746)?
OUT: 770

----------
// reported inhibition for each item listed
Target: Transcriptional activator protein LasR (Pseudomonas aeruginosa (strain ATCC 15692 / PAO1 / 1C / PRS 101 / LMG12228)) (UniProt P25084)
Experiment: Antagonist activity at Pseudomonas aeruginosa PAO1 MW1 (pUM15) LasR assessed as inhibition of OdDHL-induced quorum sensing activation at 10 uM after 8 hrs by […] relative to untreated control
Format: functional
Please reply with the bare figure in % and do not write the unit itself.

Below, 4 compounds whose answers are already recorded.
{"chemical structure": "CCCCCCCC(=O)N[C@H]1CCSC1=O", "readout": "inhibition", "unit info": "%", "data value": -7}
{"chemical structure": "CCCCCCC(=O)N[C@H]1CCSC1=O", "readout": "inhibition", "unit info": "%", "data value": -8}
{"chemical structure": "CCCCCC(=O)CC(=O)N[C@H]1CCSC1=O", "readout": "inhibition", "unit info": "%", "data value": -8}
{"chemical structure": "O=C(Cc1cccc([N+](=O)[O-])c1)N[C@H]1CCSC1=O", "readout": "inhibition", "unit info": "%", "data value": -7}

Now for another entry.
IN: Record request: inhibition value, item O=C(CCc1cc2ccccc2[nH]1)N[C@H]1CCSC1=O
OUT: -7

----------
Activity for assorted compounds
Biological target: Transcriptional activator protein TraR (Agrobacterium tumefaciens) (UniProt P33905)
Test: Agonist activity at Agrobacterium tumefaciens WCF (pCF372) TraR at 10 uM after 8 hrs by beta-galactosidase reporter gene assay relative to […]
Assay type: functional
Quick reminder: number only, in %, skip the unit.

Here is how some compounds turned out for Activity.
{"compound": "O=C(Cc1ccccc1)NC1CCSC1=O (racemic)", "Activity [%]": 0}
{"compound": "O=C(Cc1cccc([N+](=O)[O-])c1)NC1CCSC1=O (racemic)", "Activity [%]": 0}
{"compound": "CCCC(=O)N[C@H]1CCSC1=O", "Activity [%]": 0}
{"compound": "COc1ccc(CC(=O)N[C@H]2CCSC2=O)cc1", "Activity [%]": 0}
{"compound": "O=C(Cc1ccccc1)N[C@H]1CCSC1=O", "Activity [%]": 3}

IN: Recorded Activity for CCCCCCC(=O)N[C@H]1CCSC1=O , please?
OUT: 0

IN: Which Activity value is on record for CCCCCC(=O)N[C@H]1CCSC1=O ?
OUT: 0

IN: # Activity lookup, item O=C(CCc1cc2ccccc2[nH]1)NC1CCSC1=O (racemic)
OUT: 6
